Assay: Biosafety (cytotoxicity) evaluation on H9c2 cells (MTT)
Format: cell-based, rat
Conditions: rat, H9c2 cells; H9c2, 50 μM, MTT; read-out: cell viability
MEASUREMENT_TYPE: viability at 50 µM

*Q* Please give the measured viability at 50 µM for this compound: C[C@@H]1CC[C@@]2(OC1)O[C@H]1C[C@H]3[C@@H]4CC=C5C[C@@H](O)CC[C@]5(C)[C@H]4CC[C@]3(C)[C@H]1[C@@H]2C [DG, diosgenin]
*A* ~60%

---

melting point listing for selected molecules.
Only the number, expressed in °C, is required.

Example molecules with recorded melting point:
CC1CCC2(OC1)OC1CC3C4CC=C5CC(OC(=O)C(N)C(C)C)CCC5(C)C4CCC3(C)C1C2C [DG-17, 3β-(L-valine)-diosgenin]; 139.1
CC1CCC2(OC1)OC1CC3C4CC=C5CC(OC(=O)C6CCCN6C(=O)OC(C)(C)C)CCC5(C)C4CCC3(C)C1C2C [DG-4, 3β-(N-Boc-L-proline)-diosgenin]; 183.4
CC1CCC2(OC1)OC1CC3C4CC=C5CC(OC(=O)CN)CCC5(C)C4CCC3(C)C1C2C (stereo not drawn) [DG-10, 3β-(glycine)-diosgenin]; 110.8

*Q* # query: melting point of entry CNCC(=O)OC1CCC2(C)C(=CCC3C2CCC2(C)C3CC3OC4(CCC(C)CO4)C(C)C32)C1 (stereo not drawn) [DG-12, 3β-(sarcosine)-diosgenin]
*A* 176

*Q* Repeat for the following molecule: CC1CCC2(OC1)OC1CC3C4CC=C5CC(OC(=O)C(Cc6ccccc6)NC(=O)OC(C)(C)C)CCC5(C)C4CCC3(C)C1C2C [DG-7, 3β-(N-Boc-L-phenylalanine)-diosgenin]
*A* 163.4

*Q* Then what about the molecule CC1CCC2(OC1)OC1CC3C4CC=C5CC(OC(=O)CNC(=O)OC(C)(C)C)CCC5(C)C4CCC3(C)C1C2C (stereo not drawn) [DG-1, 3β-(N-Boc-glycine)-diosgenin] ?
*A* 218.7

---

melting point by entry:
Kindly provide the numeric value in °C only, without the unit symbol.

// known answers, use as guide
CC1CCC2(OC1)OC1CC3C4CC=C5CC(OC(=O)C(NC(=O)OCc6ccccc6)C(C)C)CCC5(C)C4CCC3(C)C1C2C (stereo not shown); 158.4
CC1CCC2(OC1)OC1CC3C4CC=C5CC(OC(=O)C(CCCCNC(=O)OCc6ccccc6)NC(=O)OCc6ccccc6)CCC5(C)C4CCC3(C)C1C2C (stereo not shown); 135.8
CCC(C)C(N)C(=O)OC1CCC2(C)C(=CCC3C2CCC2(C)C3CC3OC4(CCC(C)CO4)C(C)C32)C1 (stereo not shown); 147.1
CC1CCC2(OC1)OC1CC3C4CC=C5CC(OC(=O)C(N)CCCCN)CCC5(C)C4CCC3(C)C1C2C (stereo not shown); 189.4
CC1CCC2(OC1)OC1CC3C4CC=C5CC(OC(=O)C(C)NC(=O)OC(C)(C)C)CCC5(C)C4CCC3(C)C1C2C (stereo not shown); 218.9

*Q* Record request: melting point value, item CC1CCC2(OC1)OC1CC3C4CC=C5CC(OC(=O)C(C)N)CCC5(C)C4CCC3(C)C1C2C (stereo not shown)
*A* 219.1

*Q* Another compound to check: CC(C)CC(N)C(=O)OC1CCC2(C)C(=CCC3C2CCC2(C)C3CC3OC4(CCC(C)CO4)C(C)C32)C1 (stereo not shown)
*A* 154.4
